B1: glmS ribozyme (parent)
chain: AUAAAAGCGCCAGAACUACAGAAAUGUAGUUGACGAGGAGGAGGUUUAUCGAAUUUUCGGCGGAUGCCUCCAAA

variants of: B1; assay: self-cleavage kobs at 640 uM GlcN6P; higher = faster cleavage; RNA array; details: with glucosamine-6-phosphate
Variants at the floor of the assay were thinned out.
Reported self-cleavage kobs at 640 uM GlcN6P by item:
Express the result in s⁻¹ but write the number alone.

Consider the following illustrative entries.
mutation-key | unit-symbol | self-cleavage kobs at 640 uM GlcN6P
A12G A39C | s⁻¹ | 6.42e-05
G29U U30G | s⁻¹ | 0.00131
A42U U45G | s⁻¹ | 7.31e-05
C16U A42G | s⁻¹ | 0.00699
U31G U55A U69G | s⁻¹ | 7.53e-05
A20G C58U C70G | s⁻¹ | 0.000104

(Q) What value of self-cleavage kobs at 640 uM GlcN6P has been recorded for this entry: A39U G40C U46C
(A) 0.000338

The reported measurements were obtained from the supplement of paper PMC7125110.
